# assay explanation: 384-well plate pilot, post-Golgi transport modulator project, inhibition of yeast transport mutant growth (AID 636)
# condition parameters: absorbance 615 nm, about 18 h, hits give high values
Let's look at some compounds and their measured inhibition.

- compound: "CC1CCCCC1NC(=O)CCCc1nc2ccccc2c(=O)[nH]1 (stereo unspecified)"
  inhibition, %: 0.27
- compound: "Cc1cccc(N2CCN(S(=O)(=O)c3ccc4c(c3)CCC(=O)N4)CC2C)c1 (stereo unspecified)"
  inhibition, %: -5.13
- compound: "CCOC(=O)c1cccc(NC(=O)CS(=O)(=O)Cc2nc(-c3cccc(OC)c3)oc2C)c1"
  inhibition, %: -7.87
- compound: "Cn1cnc2c(N3CCCCC3)nccc21"
  inhibition, %: -4.16
- compound: "CC(C)(C)c1cc(C(=O)O)nn1-c1ccccc1"
  inhibition, %: -4.47
- compound: "COc1ccc(C2/C(=C(/O)c3cnn(-c4ccccc4)c3C)C(=O)C(=O)N2CCN(C)C)cc1OC (stereo unspecified)"
  inhibition, %: -1.62

###

# assay explanation: growth inhibitors of H69AR lung tumor, primary screen, human, duplicate replicates (AID 580);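 note: 100% = mean luminescence of untreated wells and 0% = no signal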
# condition parameters: H69AR lung tumor cells viability, ATP luminescence, 72 h; at 10 µM; hits give low values

- molecule: "c1ccn2c(SCc3cn4ccsc4n3)nnc2c1"
  readout unit: "%"
  viability: 110
- molecule: "O=C(O)[C@@H]1CCCN1c1ncnc2sc3c(c12)CCC3"
  readout unit: "%"
  viability: 106
- molecule: "COC(=O)C(CC(C)C)NC(=O)CSc1nc(-c2ccccc2)c(C#N)c(=O)[nH]1 (stereo not drawn)"
  readout unit: "%"
  viability: 108
- molecule: "Cc1cccc(N2CCN(S(=O)(=O)c3ccc4c(c3)CCC(=O)N4)CC2C)c1 (stereo not drawn)"
  readout unit: "%"
  viability: 73.6
- molecule: "COCCNC(=O)c1c(N)n(CCC2=CCCCC2)c2nc3ccccc3nc12"
  readout unit: "%"
  viability: 89
- molecule: "CC(=O)Nc1ccc2c(c1)nc(CCNC(=O)c1ccccc1)n2C"
  readout unit: "%"
  viability: 102
- molecule: "CSc1nnc2n(CCc3ccccc3)c(=O)c3c4c(sc3n12)CCCC4"
  readout unit: "%"
  viability: 102
- molecule: "Cc1ccc(Cn2nnc3c(=O)n(CC(=O)NCC4CCCO4)cnc32)cc1 (stereo not drawn)"
  readout unit: "%"
  viability: 104
- molecule: "COc1ccc(-c2nnc(SCC#N)o2)cc1"
  readout unit: "%"
  viability: 103
- molecule: "Cc1cccc(NC(=O)c2cc3n(n2)C(C(F)(F)F)CC(c2ccc4c(c2)OCO4)N3)c1 (stereo not drawn)"
  readout unit: "%"
  viability: 73.9
- molecule: "COc1ccc(CN(CC(=O)NCC2CCCO2)C(=O)CNS(=O)(=O)c2ccc(C)cc2)cc1 (stereo not drawn)"
  readout unit: "%"
  viability: 97.2
- molecule: "CCC1Oc2ccccc2N(CC(=O)Nc2ccc(OC)cc2OC)C1=O (stereo not drawn)"
  readout unit: "%"
  viability: 100
- molecule: "Cc1n[nH]c(C)c1S(=O)(=O)N1CCN(c2ccccn2)CC1"
  readout unit: "%"
  viability: 103
- molecule: "COc1cccc(NC(=O)CN2CCN(c3ccccc3F)CC2)c1"
  readout unit: "%"
  viability: 94.9
- molecule: "CCCn1c2ccccc2c2nnc(SCC(=O)OCC)nc21"
  readout unit: "%"
  viability: 91.2
- molecule: "Cn1nc(C(=O)NC2CCCCCC2)ccc1=O"
  readout unit: "%"
  viability: 111
- molecule: "CC(C)(C)c1ccccc1NC(=O)c1cccnc1"
  readout unit: "%"
  viability: 96.6
- molecule: "CCCCn1c(SCC(=O)Nc2ccc(OC)cc2)nc2ccc(N3CCOCC3)cc2c1=O"
  readout unit: "%"
  viability: 89.6
- molecule: "O=S(=O)(NCCc1ccccc1F)c1cccc(S(=O)(=O)N2CCOCC2)c1"
  readout unit: "%"
  viability: 97.5
- molecule: "C/C(=C\\c1cc(C(=O)O)c(C)o1)CO"
  readout unit: "%"
  viability: 89.1
- molecule: "O=C1CC(c2ccco2)=Nc2ccccc2N1"
  readout unit: "%"
  viability: 109
- molecule: "CCCNC(=O)c1ccccc1C(=O)NCCC"
  readout unit: "%"
  viability: 90.5
- molecule: "COCCn1c(SCC(=O)c2ccccc2)nc2c(c1=O)SC(C)C2 (stereo not drawn)"
  readout unit: "%"
  viability: 79.7
